System: HBV (HepG2.117 cell line, inducibly HBV producing)
PROCEDURE DETAILS: Anti-HBV activity: intracellular HBV DNA by real-time PCR in HepG2.117 cells after 3 days of treatment
Format: cell-based, hepatitis B virus
CONDITIONS USED: Hepatitis B virus, HepG2.117, 72 h, HepG2.117 cells, 3 days of treatment, intracellular HBV DNA by real-time PCR; mean value; read-out: EC50 (μM, mean value)
MEASURED ENDPOINT: EC50

Previously resolved entries follow.
COMPOUND	EC50
COc1ccc(CNc2nc3c(c(=O)[nH]2)C[C@@H](C)N(C(=O)c2ccc(Cl)c(Cl)c2)C3)cc1 [Compound C63A]	3.58 µM
CNC(=O)c1ccc(-n2c(NCc3ccc(OC)cc3)nc3c(c2=O)CCN(C(=O)c2ccc(Cl)c(Cl)c2)C3)cc1F	0.42 µM
Cc1cc(-c2ccc(-n3c(NC(C)C)nc4c(c3=O)C[C@@H](C)N(C(=O)c3ccc(Cl)c(Cl)c3)C4)cc2)on1	0.19 µM

Supply recorded EC50 for CNC(=O)c1ccc(-n2c(NC(C)(C)C)nc3c(c2=O)C[C@@H](C)N(C(=O)c2ccc(Cl)c(Cl)c2)C3)cc1 here.
0.05 µM

Supply recorded EC50 for C[C@@H]1Cc2c(nc(NC(C)(C)c3cnn(C)c3)n(-c3ccc(S(C)(=O)=O)cc3)c2=O)CN1C(=O)c1ccc(Cl)c(Cl)c1 here.
0.59 µM

Supply recorded EC50 for C=CCNc1nc2c(c(=O)n1CC=C)CCN(C(=O)c1ccc(Cl)c(Cl)c1)C2 here.
8.76 µM

###

Listed below: EC50 values for each entry.
Tested on: HBV (HepG2.117 cell line, inducibly HBV producing)
PROCEDURE DETAILS: Anti-HBV activity: intracellular HBV DNA by real-time PCR in HepG2.117 cells after 3 days of treatment
Type: cell-based, hepatitis B virus
CONDITIONS USED: Hepatitis B virus, HepG2.117, 72 h, HepG2.117 cells, 3 days of treatment, intracellular HBV DNA by real-time PCR; mean value; read-out: EC50 (μM, mean value)
Report the value in µM with no unit label.

COMPOUND	EC50, µM
COc1ccc(CNc2nc3c(c(=O)n2-c2ccc(N4CCOCC4C(=O)O)cc2)CCN(C(=O)c2ccc(Cl)c(Cl)c2)C3)cc1 (stereo not shown)	23.1

Okay, next one:
Supply recorded EC50 for COc1ccccc1-n1c(NCCO)nc2c(c1=O)CCN(C(=O)c1ccc(Cl)c(Cl)c1)C2 here.
32.1

###

PROCEDURE DETAILS: in vitro
Format: cell-based
CONDITIONS USED: human, HepG2 or HepG2.117 cells, ATPlite, 3-days incubation (not marked with *), mean value
Protocol: Cytotoxicity of the compounds was tested using HepG2 or HepG2.117 cells, incubated for 3 or 4 days in the presence of compounds. The viability of the cells was assessed using the PERKIN ELMER ATPlite Luminescence Assay System.”
MEASURED ENDPOINT: CC50 at 3 days

Previously resolved entries follow.
MOLECULE	REPORTED RESULT
CNC(=O)c1ccc(-n2c(N[C@H]3CCOc4ccccc43)nc3c(c2=O)C[C@@H](C)N(C(=O)c2ccc(Cl)c(Cl)c2)C3)cc1 (single isomer, unassigned) [Compound C526b]	16.3 µM
CNC(=O)c1ccc(-n2c(NC(C)C)nc3c(c2=O)C[C@@H](C)N(C(=O)c2cc(Cl)c(Cl)cc2OC)C3)cc1	> 50 µM
CNC(=O)c1ccc(-n2c(N[C@@H](C)c3ccc(C(F)F)cc3)nc3c(c2=O)C[C@@H](C)N(C(=O)c2ccc(Cl)c(Cl)c2)C3)cc1	18.7 µM

Supply recorded CC50 at 3 days for CC(C)Nc1nc2c(c(=O)[nH]1)C[C@@H](C)N(C(=O)c1ccc(Cl)c(Cl)c1)C2 here.
> 50 µM

Supply recorded CC50 at 3 days for CNC(=O)c1ccc(-n2c(NC(C)C)nc3c(c2=O)C[C@@H](C)N(C(=O)c2ccc(Cl)c(C(F)(F)F)c2)C3)cc1 here.
> 50 µM

Supply recorded CC50 at 3 days for CNC(=O)c1ccc(-n2c(N[C@@H](C)C3CC3)nc3c(c2=O)C[C@@H](C)N(C(=O)c2ccc(Cl)c(C(F)(F)F)c2)C3)c(Cl)c1 (single isomer, unassigned) [Compound C676a] here.
> 50 µM

Supply recorded CC50 at 3 days for CNC(=O)c1ccc(-n2c(NC(C)C)nc3c(c2=O)C[C@@H](C)N(C(=O)c2ccc(Cl)c(C(F)(F)F)c2)C3)c(OC)c1 here.
> 50 µM

Supply recorded CC50 at 3 days for CC(C)Nc1nc2c(c(=O)n1-c1ccc(S(=O)(=O)Nc3ccccn3)cc1)C[C@@H](C)N(C(=O)c1ccc(Cl)c(Cl)c1)C2 here.
> 50 µM

Supply recorded CC50 at 3 days for CNC(=O)c1ccc(-n2c(NC(C)C)nc3c(c2=O)C[C@@H](C)N(C(=O)c2ccc(C(F)F)c(F)c2)C3)cc1 here.
> 50 µM

Supply recorded CC50 at 3 days for CNC(=O)c1ccc(-n2c(NC(C)c3nccs3)nc3c(c2=O)C[C@@H](C)N(C(=O)c2ccc(Cl)c(Cl)c2)C3)cc1 (some centres unmarked) here.
> 50 µM

Supply recorded CC50 at 3 days for CNC(=O)c1cc(-n2c(NC(C)C)nc3c(c2=O)C[C@@H](C)N(C(=O)c2ccc(Cl)c(Cl)c2)C3)n(C(C)C)n1 here.
> 50 µM

Supply recorded CC50 at 3 days for CNC(=O)c1ccc(-n2c(N[C@@H](C)c3ccc4[nH]cnc4c3)nc3c(c2=O)C[C@@H](C)N(C(=O)c2ccc(Cl)c(Cl)c2)C3)cc1 (single isomer, unassigned) [Compound C647b] here.
> 50 µM

Supply recorded CC50 at 3 days for CNC(=O)c1ccc(-n2c(N[C@@H](C)c3ccccc3OC(F)F)nc3c(c2=O)C[C@@H](C)N(C(=O)c2ccc(Cl)c(Cl)c2)C3)cc1 (single isomer, unassigned) [Compound C438b] here.
29.9 µM

Supply recorded CC50 at 3 days for CNC(=O)c1ccc(-n2c(NC(C)C)nc3c(c2=O)C[C@@H](C)N(C(=O)c2ccc(Br)cc2OC(F)F)C3)cc1 here.
> 50 µM

Supply recorded CC50 at 3 days for CNC(=O)c1cc(-n2c(N[C@@H](C)c3ccc(OC(F)(F)F)cc3)nc3c(c2=O)C[C@@H](C)N(C(=O)c2ccc(Cl)c(Cl)c2)C3)n(C)n1 here.
> 45 µM

Supply recorded CC50 at 3 days for CNC(=O)c1cnc(-n2c(N[C@@H](C)c3ccc(C(F)(F)F)cc3)nc3c(c2=O)C[C@@H](C)N(C(=O)c2ccc(Cl)c(Cl)c2)C3)cn1 here.
> 50 µM

Supply recorded CC50 at 3 days for CNC(=O)c1cnc(-n2c(N[C@@H](C)c3ccc(F)cc3)nc3c(c2=O)C[C@@H](C)N(C(=O)c2ccc(Cl)c(Cl)c2)C3)cn1 here.
> 50 µM

Supply recorded CC50 at 3 days for CNC(=O)c1ccc(-n2c(NCc3n[nH]c(C)n3)nc3c(c2=O)C[C@@H](C)N(C(=O)c2ccc(Cl)c(Cl)c2)C3)cc1 here.
> 50 µM

Supply recorded CC50 at 3 days for CNC(=O)c1ccc(-n2c(NC(C)C)nc3c(c2=O)C[C@@H](C)N(C(=O)c2cc(Br)c(Cl)cc2OC)C3)cc1 here.
> 50 µM

Supply recorded CC50 at 3 days for CNC(=O)c1ccc(-n2c(N[C@@H](C)c3ccc(OC)c(F)c3)nc3c(c2=O)C[C@@H](C)N(C(=O)c2ccc(Cl)c(Cl)c2)C3)cc1 (single isomer, unassigned) [Compound C416b] here.
34.5 µM

###

PROCEDURE DETAILS: in vitro
Type: cell-based
CONDITIONS USED: human, HepG2 or HepG2.117 cells, 3-days incubation (unmarked values), ATPlite; mean value
MEASURED ENDPOINT: CC50 at 3 days (µM)
Report the value in µM with no unit label.

MOLECULE	CC50 at 3 days (µM)
CNC(=O)c1ccc(-n2c(N[C@@H]3CCCC3(C)C)nc3c(c2=O)C[C@@H](C)N(C(=O)c2ccc(Cl)c(Cl)c2)C3)cc1 (single isomer, unassigned) [Compound C318]	23.2

Supply recorded CC50 at 3 days for CC(C)Nc1nc2c(c(=O)n1-c1ccc(C(=O)N3CCN(C)CC3)cc1)C[C@@H](C)N(C(=O)c1ccc(Cl)c(Cl)c1)C2 [Compound C169] here.
30.7

###

Listed below: CC50 at 3 days values for each entry.
PROCEDURE DETAILS: in vitro
Type: cell-based
CONDITIONS USED: human, HepG2 or HepG2.117 cells, 3-days incubation (unmarked values), ATPlite; mean value

COMPOUND	MEASURED ENDPOINT	REPORTED RESULT
CNC(=O)c1ncc(-n2c(NC)nc3c(c2=O)C[C@@H](C)N(C(=O)c2ccc(Cl)c(Cl)c2)C3)cn1	CC50 at 3 days	> 50 µM

Supply recorded CC50 at 3 days for CNC(=O)OCC[C@@H](Nc1nc2c(c(=O)n1-c1ccc(C(=O)NC)cc1)C[C@@H](C)N(C(=O)c1ccc(Cl)c(Cl)c1)C2)C1CC1 (single isomer, unassigned) here.
> 50 µM

Supply recorded CC50 at 3 days for CC(C)N(CCO)c1nc2c(c(=O)[nH]1)CCN(C(=O)c1ccc(Cl)c(Cl)c1)C2 here.
> 50 µM

Supply recorded CC50 at 3 days for CC(C)Nc1nc2c(c(=O)n1-c1ccc(S(C)(=O)=O)cc1)CC(c1ccc(F)cc1)N(C(=O)c1ccc(Cl)c(Cl)c1)C2 (stereo not shown) here.
> 50 µM

Supply recorded CC50 at 3 days for COc1ccccc1-n1c(NCc2ccc(Cl)cc2Cl)nc2c(c1=O)CCN(C(=O)c1ccc(Cl)c(Cl)c1)C2 here.
> 50 µM

Supply recorded CC50 at 3 days for CC(C)Nc1nc2c(c(=O)n1-c1ccc(-c3cnccn3)cc1)CCN(C(=O)c1ccc(Cl)c(Cl)c1)C2 here.
8.7 µM
